assay-procedure: Microsomal metabolism test, human liver microsomes
stated-conditions: human, microsomes, pH 7.4
assay-endpoint: half-life at 1 μg/mL (min)
Please respond with the number in min and leave the unit unwritten.

[Q] Look at this compound and give its reported half-life at 1 μg/mL. CC(Cc1ccccc1)N(C)C(=O)OC(C)(C)C (stereo not shown)
[A] 3.2

----------
assay-procedure: Microsomal metabolism test, rat liver microsomes
stated-conditions: rat, microsomes, pH 7.4
assay-endpoint: microsomal CLint at 1 μg/mL (µL/min/mg)
Field: numeric (µL/min/mg). Do not append units.

[Q] microsomal CLint at 1 μg/mL for CC(Cc1ccccc1)N(C)C(=O)OC(C)(C)C (stereo not shown) [BocMA, N-tert-butoxycarbonylmethamphetamine] ?
[A] 360

----------
assay-procedure: Microsomal metabolism test, rat liver microsomes
stated-conditions: RLM incubation of BocMA
assay-endpoint: Detection after incubation of BocMA (LC–QToF–MS)

Recorded results for 5 compounds are shown here.
[Q] Query: Detection after incubation of BocMA (LC–QToF–MS); subject: CC(N)Cc1ccc(O)cc1 (centres unmarked) [4OHAP, 4-hydroxy amphetamine, reference compound]
[A] not detected

[Q] Field entry: CC(C(O)c1ccccc1)N(C)C(=O)OC(C)(C)C (single isomer, unassigned) [M1–D1, N-tert-butoxycarbonylephedrine]
[A] detected

[Q] Repeat with CC1N(C)C(O)(OC(C)(C)C)OC1(O)c1ccccc1 (centres unmarked)
[A] detected

[Q] Same thing, different compound: CNC(C)Cc1ccc(O)cc1 (centres unmarked) [4OHMA, 4-hydroxy methamphetamine, reference compound]
[A] not detected

[Q] Thanks! And CC(NC(=O)OC(C)(C)C)C(O)c1ccccc1 (centres unmarked) ?
[A] not detected

***
[Q] Entry under review: CC(NC(=O)OC(C)(C)C)C(=O)c1ccccc1 (centres unmarked) . Reported Detection after incubation of BocMA (LC–QToF–MS)?
[A] detected

[Q] What would you report for CC(C(=O)c1ccccc1)N(C)C(=O)OC(C)(C)C (centres unmarked) [BocMC, reference compound] ?
[A] not detected

----------
assay-procedure: Microsomal metabolism test, rat liver microsomes
stated-conditions: RLM incubation of BocMA
assay-endpoint: Detection after incubation of BocMA (LC–QToF–MS)

[Q] Sample CC(N)Cc1ccccc1 (stereo not shown) [AP, amphetamine] — what was its Detection after incubation of BocMA (LC–QToF–MS)?
[A] not detected

[Q] Repeat for the following compound: C[C@H](NC(=O)OC(C)(C)CO)C(=O)c1ccccc1 [M5]
[A] detected

[Q] Lookup CC(C(O)c1ccccc1)N(C)C(=O)OC(C)(C)C (single isomer, unassigned) [M1–D2, N-tert-butoxycarbonylpseudoephedrine]
[A] detected

[Q] Please do the same for CN[C@@H](C)Cc1ccccc1 [MA, Methamphetamine] as well.
[A] not detected
